Provide the reported TGI of each item.
# Tested on: SK-OV-3 ovarian
# Test Protocol: NCI tumour cell line growth inhibition, 48 h

Item COC(=O)C(=O)C(C(=O)OC)C(=O)C(=O)Nc1ccccc1C(N)=O (stereo not drawn) : provide TGI
> 100 µM

Hello, please tell me recorded TGI for this one: `O=C(O)COc1cc(-c2ccccc2)nc2ccc(F)cc12`
> 100 µM

Assign TGI to the following record: Oc1ccc2c(c1)OCC1c3ccccc3OC21 (stereo not drawn)
> 100 µM

Give the reported value of TGI for this record: `ClCCN1CCOC1=C1C=CC=C1`
> 100 µM

Please look at this compound and report its TGI: CN1C(=O)N(C)C(N2CCCC2)c2c1nc1ccccn1c2=O (stereo not drawn)
> 100 µM

Identify the reported TGI for the following entry. O=C1CCC(C(=O)O)C2=C1CCCC2 (stereo not drawn)
> 100 µM

Complete the entry with TGI for `SCCCSCCSCCCSCCS`
> 100 µM

Give the value of TGI reported for the following: `CCOCCOc1ccc(OCCOCC)cc1`
> 100 µM

Indicate its recorded TGI; the compound in question is `Nc1nc(-c2ccccc2)cc(-c2ccccc2O)n1`
> 100 µM

Look up and state reported TGI for Clc1ccc(C2=NOC(C3CCCCC3)C2)cc1 (stereo not drawn)
> 100 µM

Hello, please tell me recorded TGI for this one: O=C1OC(CC(=O)c2ccccc2Cl)C(Cl)=C1Cl (stereo not drawn)
> 100 µM

Read off the recorded TGI for `O=C1c2ccc3cc(CCl)cc(O)c3c2C(=O)c2cccc(O)c21`
> 10 µM

For the compound `COc1ccc(-c2c(C#N)c(N)nc3c2COc2ccc(F)cc2-3)cc1OC` , give its reported TGI.
36.8 µM

---

# Test system: ACHN renal
# Test Protocol: NCI tumour cell line growth inhibition, 48 h
just bin them by TGI: band 1 (below 7 µM), band 2 (7 µM to below 40 µM), band 3 (40 µM or more)

Lab note: sort COc1cc(C(C)c2ccc3c(ccn3C)c2)cc(OC)c1OC (stereo not drawn) into the matching TGI band.
band 3

Bin? `CCn1ncc(Oc2c(Cl)cc(N)cc2Cl)c(Cl)c1=O`
band 3

Just checking, what class would you give `CCC[C@H](N[C@H]1CCc2cc(F)cc(F)c2C1)C(=O)Nc1cn(C(C)(C)CNCC(C)(C)C)cn1` here?
band 3

Which band does `COC(=O)c1ccc(NC(=O)c2cc3c(cc2Br)OCO3)o1` fall in?
band 3

Class? Entry: COc1cc2c(cc1OC)C(Cc1ccc(Oc3cc(CC4c5cc(OC)c(OC)cc5CCN4C)ccc3O)cc1)N(C)CC2 (stereo not drawn)
band 2

Hi, small favor: classify `CCCCn1c(C)c(C(=O)CC)c(C(=O)NCCN2CCN(c3ccccc3Cl)CC2)c1C` by its TGI when you get a moment.
band 2

State the class of the compound shown: `Oc1c(Cl)cc(Cl)c2ccc(Cn3cc(-c4cc(F)cc(F)c4)nn3)nc12`
band 1

Just checking, what class would you give `O=C1OC(c2ccccc2)=N/C1=C\c1ccc(F)cc1` here?
band 3

Band assignment needed for `CN1CCN(CCCCN2c3ccccc3Sc3ccc(C(=O)c4ccccc4)cc32)CC1` please.
band 1

Record `O=C(O)c1sccc1O` — which class?
band 3

State the class of the compound shown: `CC(C)(C)OC(=O)NCC(c1c[nH]c2ccc(Br)cc12)c1c[nH]c2ccc(Br)cc12`
band 2

Into which bin does this compound go? `CCc1c(C)[nH]c2c1/C(=N/N=C1\CCCc3[nH]c(C)c(CC)c31)CCC2`
band 3

Band for `CC(=O)Nc1ccc(NNc2cc(=O)n(C)c(=O)[nH]2)cc1` ?
band 2

Quick check: band for `O=C(CNc1c(Cl)cccc1Cl)Nc1ccc(-c2nc3ccccc3s2)cc1`
band 1

Entry `Cc1ccc(S(=O)(=O)NCCN(CCNS(=O)(=O)c2ccc(C)cc2)S(=O)(=O)c2ccc(C)cc2)cc1` belongs to which category?
band 3

For this compound, which bin applies? `O=c1n(-c2ccccc2)c(=O)n2n1C1C=CC2CCCCCC1`
band 3

For the record CC1(C(=O)O)CCC(C(=O)O)C(C)(C)O1 (stereo not drawn) , report the class its TGI corresponds to.
band 3

Class (by measured TGI) for CCOC(=O)C1(c2ccccc2)CCCNCC1 (stereo not drawn)
band 3

Bin this entry: `COc1cc(NC(=O)c2ccc(C(F)(F)F)nc2Nc2ccc(Cl)cc2C)cc(OC)c1OC`
band 2

Which class holds `CC/C=C\C/C=C\C[C@H]1C/C=C2/C(=O)C=C[C@@H]2C/C=C\CCC(=O)O1` ?
band 1

Place this compound in its band: C=C(C)C(CC=C(C)C)Cc1c(O)cc(OC)c2c1OC(c1ccc(O)cc1O)C(O)C2=O (stereo not drawn)
band 3

Hello team, could you let me know which band the following compound falls into: OC1(c2ccccc2)CCCCCCCCC(O)(c2ccccc2)CCCCCCCC1 (stereo not drawn)
band 3

Category lookup for the compound `O=C(O)COc1cc(-c2ccccc2)nc2ccc(F)cc12`
band 3

Quick check: band for O=C1OC(=O)C2=C1C(c1cccs1)C=C(c1cccnc1)N2c1ccncc1 (stereo not drawn)
band 2

Note: place this compound into its band. Item: `CCN(CC)c1ccc2c(cc1=O)[C@@H](NC(C)=O)CCc1cc(OC)c(OC)c(OC)c1-2`
band 3

Which bin, given its TGI, does `Cc1c2nc3ccccc3sc-2cc(=O)c1C` occupy?
band 3

Please classify: `Nc1ncnc2nc(N3CCN(CCO)CC3)[nH]c12`
band 3

Class? Entry: `CCOc1ccc2nc3cc(N=Nc4ccc(N)nc4N)ccc3c(N)c2c1`
band 2

Given `Fc1ccc(-c2nnc3sc(-c4cc(Cl)cc(Cl)c4)nn23)cc1Cl` , name the class its TGI places it in.
band 3

Pick a category. Item: COc1cc(OC)cc(C2C(C#N)=C(N)Oc3c2ccc2ccc(O)cc32)c1 (stereo not drawn)
band 1

Band for the recorded TGI of `O=C(CC(Cl)(Cl)C(Cl)(Cl)Cl)c1ccccc1` ?
band 1

Returns: class label. Input: `Cc1nc2ccccc2c(=O)n1NC(=S)Nc1ccccc1`
band 3

Exercise: read the entry `COc1ccc(CN2C(=O)C(Cl)=C(Nc3cccc(O)c3)C2=O)cc1` and state which class it falls under.
band 3

Into which category would you place `Nc1ccc2c(c1)Cc1ccccc1-2` ?
band 3

Bin this entry: `Cc1cc(C)nc(NS(=O)(=O)c2ccc(NC(=O)c3ccc(Cl)c4c(Nc5ccc(S(=O)(=O)Nc6cc(C)on6)cc5)c5ccccc5nc34)cc2)n1`
band 2

Field: class (TGI) — entry: O=S(=O)(c1ccccc1)C1CN2OC1(S(=O)(=O)c1ccccc1)CC21CCCCC1 (stereo not drawn)
band 3

---

# Tested on: HOP-62 NSCLC
# Test Protocol: NCI tumour cell line growth inhibition, 48 h
Measured Quantity: TGI

Determine from records and report TGI for `CCOc1ccc2nc3cc(N=Nc4ccc(N)nc4N)ccc3c(N)c2c1`
> 100 µM

Quick one: give measured TGI for `O=C(/C=C/c1cccc([N+](=O)[O-])c1)c1cccnc1`
> 100 µM

Report measured TGI; entry is `O=[N+]([O-])c1ccc(N=Nc2c(O)[nH]c3ccc(Br)cc23)cc1`
33.8 µM

Indicate the recorded TGI value for this compound: `N.N.NCCCCCCN.O=C([O-])CCl.O=C([O-])CCl.O=C([O-])CCl.O=C([O-])CCl.[Pt+4].[Pt+4]`
> 50 µM

Identify the reported TGI for the following entry. `COc1cc2oc(-c3ccc4c(c3)OCO4)c(OC)c(=O)c2c(OC)c1OC`
93 µM

Answer with reported TGI of `O=c1n(-c2ccccc2)c(=O)n2n1C1C=CC2CCCCCC1`
> 100 µM

Hello, please tell me recorded TGI for this one: `CCCCn1c(C)c(C(=O)CC)c(C(=O)NCCN2CCN(c3ccccc3Cl)CC2)c1C`
40.6 µM

Return reported TGI. Input compound: COc1ccc2c3c1O[C@H]1C(=O)C=CC4(n5[nH]c(=O)n(-c6ccccc6)c5=O)C(C2)N(C)CCC314 (some centres undefined)
> 100 µM

Return reported TGI. Input compound: CC(=O)OC1Oc2ccc(C)cc2-c2oc(=O)c(-c3cc4ccccc4oc3=O)cc21 (centres undefined)
12.8 µM

---

# Test system: NCI-H522 lung
# Test Protocol: NCI tumour cell line growth inhibition, 48 h
Measured Quantity: TGI

Query TGI for `CCOC(=O)c1c(-c2ccccc2)oc(=O)c(Cc2cccc3cccnc23)c1-c1ccccc1`
> 10 µM

Kindly indicate its recorded TGI. Item: `CC1=Nn2c(nnc2-c2ccc(Cl)cc2)NC(C)(C)C1`
> 100 µM

Give reported TGI value for `CN1CCN(CCCCN2c3ccccc3Sc3ccc(C(=O)c4ccccc4)cc32)CC1`
3.44 µM

Let me know recorded TGI for COC(=S)OC1CC(n2cnc3c(=O)[nH]cnc32)OC1CO[Si](C)(C)C(C)(C)C (stereo unspecified) , thanks.
> 100 µM

Answer with the recorded TGI of `[N-]=[N+]=Nc1ccc2c(c1)Sc1ccccc1N2CCCCN1CCN(Cc2ccc(C(=O)c3ccccc3)cc2)CC1` only.
4.43 µM

Quote TGI reported for `CN(C)CCCCC1CCN(CC(=O)N2c3ccccc3NC(=O)c3ccccc32)CC1` please.
> 100 µM

Complete the entry with TGI for `C=C1C/C(=C/C)C(=O)O[C@@H]2CCN3CC=C(COC(=O)[C@]1(C)O)[C@H]23`
> 100 µM

Determine its reported TGI: COCCNCCc1cccc(Nc2ncc3c(n2)-c2ccccc2C(c2ccccc2F)C3)c1 (stereo unspecified)
2.95 µM

Kindly indicate its recorded TGI. Item: `Cn1cc(C2=C(c3c4n(c5ccccc35)CCN(C(N)=S)C4)C(=O)NC2=O)c2ccccc21`
> 15 µM

# return recorded TGI for input `N#Cc1ccc(Sc2ccccc2)cc1C#N`
> 100 µM

Note down TGI recorded for `O=C(/C=C/c1cccc([N+](=O)[O-])c1)c1cccnc1`
25.3 µM

Consider the compound `N.N.NCCCCCCN.O=C([O-])CCl.O=C([O-])CCl.O=C([O-])CCl.O=C([O-])CCl.[Pt+4].[Pt+4]` . State its measured TGI.
> 50 µM

Tell me its TGI given `O=C(Nc1ccc(Oc2cccc(Cl)c2)c(Cl)c1)c1cnccn1` as the entry.
2.55 µM

Could you please provide reported TGI for COC(=O)C(CCC1CC(OC)N(C(=O)OCc2ccccc2)C1)N=Cc1ccccc1 (stereo unspecified) ? Thanks!
72.9 µM

Please look at this compound and report its TGI: `O=c1[nH]c2ccc(N=Cc3c(O)[nH]c4ccccc34)cc2[nH]1`
> 25 µM

Read off the recorded TGI for COc1ccc2c3c1O[C@H]1C(=O)C=CC4(n5[nH]c(=O)n(-c6ccccc6)c5=O)C(C2)N(C)CCC314 (stereo partly specified)
> 100 µM

Report TGI, nothing else, for this compound: `COC(=O)c1ccc(NC(=O)c2cc3c(cc2Br)OCO3)o1`
> 100 µM

Give the value of TGI reported for the following: `CCN(CC)c1ccc2c(cc1=O)[C@@H](NC(C)=O)CCc1cc(OC)c(OC)c(OC)c1-2`
0.579 µM

Specify TGI for O=C1CCC(c2nc3cc(Cl)ccc3o2)C(=O)N1 (stereo unspecified) and stop.
> 100 µM

Name the recorded TGI of the compound listed here: CC(=O)NC1=C(C)C(=O)c2c(nc3n2CCC3OC(=O)CCl)C1=O (stereo unspecified)
11.9 µM

Give TGI for COc1cccc(CC(C)N)c1 (stereo unspecified)
> 100 µM
